# study system: Estrogen receptor (Homo sapiens) (UniProt P03372)
# Sequence (P03372 whole entry, looked up): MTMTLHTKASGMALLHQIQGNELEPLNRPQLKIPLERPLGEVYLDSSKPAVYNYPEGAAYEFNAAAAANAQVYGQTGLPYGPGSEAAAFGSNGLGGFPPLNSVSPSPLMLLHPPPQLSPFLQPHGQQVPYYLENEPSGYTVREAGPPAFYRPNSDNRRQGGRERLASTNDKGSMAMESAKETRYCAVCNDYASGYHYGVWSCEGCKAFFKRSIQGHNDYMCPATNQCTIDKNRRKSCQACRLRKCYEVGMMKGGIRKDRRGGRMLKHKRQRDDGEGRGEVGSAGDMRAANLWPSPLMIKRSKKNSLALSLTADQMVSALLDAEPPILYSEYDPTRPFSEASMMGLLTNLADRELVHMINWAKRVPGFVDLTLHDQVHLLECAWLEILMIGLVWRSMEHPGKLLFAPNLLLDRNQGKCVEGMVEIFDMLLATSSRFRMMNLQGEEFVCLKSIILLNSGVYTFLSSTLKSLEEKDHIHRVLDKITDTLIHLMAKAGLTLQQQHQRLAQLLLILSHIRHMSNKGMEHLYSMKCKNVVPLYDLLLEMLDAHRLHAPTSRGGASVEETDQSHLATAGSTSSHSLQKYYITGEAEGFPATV
# test method notes: qHTS assay to identify small molecule agonists of the estrogen receptor alpha (ER-alpha) signaling pathway (AID 743075);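 note: HEK293 GripTite cells with ER-alpha and UAS-driven beta-lactamase reporter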
# condition label: HEK293 ER-alpha-UAS-bla, beta-lactamase FRET ratio, 18 h; series mostly up to 70.1 µM
Calls of active or inactive are those of the source. Calls come from the whole dose curve.
Just give me one of these, please: active, inactive

Worked cases, answers included:
[[record]]
compound = "CC(=O)Nc1cc([As](=O)(O)O)ccc1O"
group = "inactive"

[[record]]
compound = "CCC(Cl)[N+](=O)[O-] (configuration not stated)"
group = "inactive"

[[record]]
compound = "O=C(O)c1ccc2[nH]cc(CCCCN3CC=C(c4ccccc4)CC3)c2c1"
group = "inactive"

[[record]]
compound = "CC1(C)C(=O)NC(=O)NC1=O"
group = "inactive"

[[record]]
compound = "C#C[C@]1(O)C=C[C@H]2[C@@H]3CCC4=CC(=O)CC[C@@H]4[C@H]3CC[C@@]21CC"
group = "active"

[[record]]
compound = "Cc1ncc2n1-c1ccc(Cl)cc1C(c1ccccc1F)=NC2"
group = "inactive"


Next up:
Hey, what did the test say about O=NN1CCN(N=O)CC1 ? inactive
